Please go through the items and note down their kon.
Molecular target: T1, human CD3 epsilon (Acro Cat #CDE-H5223) (human, UniProt P07766 23-126)
T1 construct: Bought recombinant protein; also called rhCD3E
T1 sequence (P07766 23-126 limits assumed): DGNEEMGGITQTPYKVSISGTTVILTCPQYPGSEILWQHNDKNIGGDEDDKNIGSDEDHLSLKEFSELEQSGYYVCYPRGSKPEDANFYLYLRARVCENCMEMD
Assay: SPR (Biacore), antibody captured, human CD3 epsilon analyte
Expressed in M⁻¹ s⁻¹, but write only the number.

The value of kon measured for the binder SRP 2037-B10 Y55D/R97D (antibody, human IgG1, lambda, V domains shown, human IgG1, lambda) VH: EVQLVESGGGLVKPGGSLRLSCAASGFTFNKYAMNWVRQAPGKGLEWVARIRTKDNNYATYYADSVKDRFTISRDDSKNTAYLQMNSLKTEDTAVYYCVRHGNFGNSYISYWAYWGQGTPVTVSS VL: QTVVTQEPSLTVSPGGTVTLTCGSSTGAVTSGYYPNWLQQKPGQAPRGLIGGTKFLAPGTPARFSGSLLGGKAALTLSGVQPEDEAEYYCALWYSNDWVFGGGTQLTVTG turned out to be 87000

The value of kon measured for the binder SRP 2037-B10 F29D/R97D (antibody, human IgG1, lambda, V domains shown, human IgG1, lambda) VH: EVQLVESGGGLVKPGGSLRLSCAASGFTDNKYAMNWVRQAPGKGLEWVARIRTKYNNYATYYADSVKDRFTISRDDSKNTAYLQMNSLKTEDTAVYYCVRHGNFGNSYISYWAYWGQGTPVTVSS VL: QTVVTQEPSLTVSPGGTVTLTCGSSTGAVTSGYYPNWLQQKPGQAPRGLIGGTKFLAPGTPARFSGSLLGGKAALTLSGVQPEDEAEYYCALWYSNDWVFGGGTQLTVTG turned out to be 4110

The value of kon measured for the binder SRP 2037-B10 F104D/LC6 (antibody, human IgG1, kappa, V domains shown, human IgG1, kappa) VH: EVQLVESGGGLVKPGGSLRLSCAASGFTFNKYAMNWVRQAPGKGLEWVARIRTKYNNYATYYADSVKDRFTISRDDSKNTAYLQMNSLKTEDTAVYYCVRHGNDGNSYISYWAYWGQGTPVTVSS VL: DIQMTQSPSSLSASVGDRVTITCGSSTGAVTSGYYPNWLQQKPGQAPRGLIGGTKFLAPGVPSRFSGSLSGGKATLTISSLQPEDFATYYCALWYSNRWVFGGGTKVEIKR turned out to be 101000

The value of kon measured for the binder SRP 2037-B10 Y55D/LC6 (antibody, human IgG1, kappa, V domains shown, human IgG1, kappa) VH: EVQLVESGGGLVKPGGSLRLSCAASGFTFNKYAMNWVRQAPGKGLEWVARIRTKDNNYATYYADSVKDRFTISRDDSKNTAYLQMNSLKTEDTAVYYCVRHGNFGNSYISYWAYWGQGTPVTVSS VL: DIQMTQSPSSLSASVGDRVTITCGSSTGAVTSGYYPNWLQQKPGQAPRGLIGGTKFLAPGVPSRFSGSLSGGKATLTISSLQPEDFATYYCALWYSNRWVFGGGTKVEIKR turned out to be 101000

The value of kon measured for the binder 2037-B10_Hc-Y55D (antibody, human IgG1, lambda, V domains shown, human IgG1, lambda; also called SRP 2037 Y55D; 2037-B10_VH-Y55D) VH: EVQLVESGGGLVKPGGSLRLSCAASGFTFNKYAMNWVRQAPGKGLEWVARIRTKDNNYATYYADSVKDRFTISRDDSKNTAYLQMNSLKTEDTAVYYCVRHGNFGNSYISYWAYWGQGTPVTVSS VL: QTVVTQEPSLTVSPGGTVTLTCGSSTGAVTSGYYPNWLQQKPGQAPRGLIGGTKFLAPGTPARFSGSLLGGKAALTLSGVQPEDEAEYYCALWYSNRWVFGGGTQLTVTG turned out to be 113000

The reported numbers originate from patent US20240124585A1.
